Source: patent US11104684B2

- Tested on: MiaPaCa2 cells
- Assay: Cell viability assay (PrestoBlue, 72 hour drug incubation)
- Assay type: cell-based
- Setup Conditions: Homo sapiens, MIA PaCa-2, 72 hour incubation, growth inhibition
Assay Endpoint: IC50 (µM)

1) C=C1CC2(OC1=O)C(=O)N(CCCCCCCCCCCCN1C(=O)C3(CC(=C)C(=O)O3)c3ccccc31)c1ccccc12 (centres unmarked) [Compound 36-242] ... 1.94
2) C=C1CC2(OC1=O)C(=O)N(CCCCCCCCCN1C(=O)C3(CC(=C)C(=O)O3)c3ccccc31)c1ccccc12 (centres unmarked) [Compound 36-204] ... 2.16
3) C=C1CC2(OC1=O)C(=O)N(CCCCCCCCCCN1C(=O)C3(CC(=C)C(=O)O3)c3ccccc31)c1ccccc12 (centres unmarked) [Compound 36-256] ... 1.47

a = C=C1CC2(OC1=O)C(=O)N(CCCCCN1C(=O)C3(CC(=C)C(=O)O3)c3ccccc31)c1ccccc12 (centres unmarked) [Compound 36-202]
b = C=C1CC2(OC1=O)C(=O)N(CCCCCCCCN1C(=O)C3(CC(=C)C(=O)O3)c3ccccc31)c1ccccc12 (centres unmarked) [Compound 36-254]
c = C=C1CC2(NC1=O)C(=O)Nc1ccccc12 (centres unmarked) [Compound 25-4]
Arrange these 3 compounds in increasing order of IC50. Return value: ordered labels per request.
a, b, c
(a: 0.91 µM, b: 1.7 µM, c: 6.08 µM)
